target: UniProt:P18825
Sequence (P18825 whole entry): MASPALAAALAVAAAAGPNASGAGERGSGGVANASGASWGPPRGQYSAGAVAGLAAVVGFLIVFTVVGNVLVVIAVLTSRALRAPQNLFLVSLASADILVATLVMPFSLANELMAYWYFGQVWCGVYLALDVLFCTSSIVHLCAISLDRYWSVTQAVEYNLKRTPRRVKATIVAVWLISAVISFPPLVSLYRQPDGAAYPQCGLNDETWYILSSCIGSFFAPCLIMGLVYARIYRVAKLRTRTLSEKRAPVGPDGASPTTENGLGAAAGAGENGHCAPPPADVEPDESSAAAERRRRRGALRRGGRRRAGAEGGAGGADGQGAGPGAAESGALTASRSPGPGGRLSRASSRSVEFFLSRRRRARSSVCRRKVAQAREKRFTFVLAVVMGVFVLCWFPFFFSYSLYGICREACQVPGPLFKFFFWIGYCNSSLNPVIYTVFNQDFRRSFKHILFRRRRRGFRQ
Type: cell-based
Parameters: The entire coding region of α2C (1383 bp), including 2 bp of 5′ UT and 400 bp of 3′ UT; expressed in transfected cells; host or cells: LM(tk-) cells
conditionNotes: inhibition of forskolin-stimulated cAMP; NA: Not Active; read-out: pEC50 Alpha-2 C (converted)
endpointLabel: log10(EC50) (log10 of the value in nM)

[
  {
    "sampleSmiles": "Brc1c(NC2=NCCN2)ccc2nc(C(c3ccccc3)c3ccccc3)[nH]c12",
    "target": "UniProt:P18825",
    "endpointLabel": "log10(EC50)",
    "reading": 0.13
  },
  {
    "sampleSmiles": "OCCn1cnc2c(Br)c(NC3=NCCN3)ccc21",
    "target": "UniProt:P18825",
    "endpointLabel": "log10(EC50)",
    "reading": 2.56
  },
  {
    "sampleSmiles": "c1ccc(-c2cc(NC3=NCCN3)cc3[nH]cnc23)cc1",
    "target": "UniProt:P18825",
    "endpointLabel": "log10(EC50)",
    "reading": 1.18
  },
  {
    "sampleSmiles": "COc1cccc(Cn2cnc3c(Br)c(NC4=NCCN4)ccc32)c1",
    "target": "UniProt:P18825",
    "endpointLabel": "log10(EC50)",
    "reading": 1.72
  },
  {
    "sampleSmiles": "Brc1c(NC2=NCCN2)ccc2nc[nH]c12",
    "target": "UniProt:P18825",
    "endpointLabel": "log10(EC50)",
    "reading": 2.07
  },
  {
    "sampleSmiles": "CCc1cc(NC2=NCCN2)cc2[nH]cnc12",
    "target": "UniProt:P18825",
    "endpointLabel": "log10(EC50)",
    "reading": 2.21
  },
  {
    "sampleSmiles": "CC(C)c1nc2ccc(NC3=NCCN3)c(Br)c2[nH]1",
    "target": "UniProt:P18825",
    "endpointLabel": "log10(EC50)",
    "reading": 2.26
  },
  {
    "sampleSmiles": "Cc1c(N=C2NCCN2)ccc2[nH]cnc12",
    "target": "UniProt:P18825",
    "endpointLabel": "log10(EC50)",
    "reading": -0.45
  }
]

----------
target: α1B Human Adrenergic Receptor (Homo sapiens, UniProt P35368)
Construct: The entire coding region of α1B(1563 bp); expressed in transfected cells; host or cells: LM(tk-) cells
Sequence (P35368 whole entry): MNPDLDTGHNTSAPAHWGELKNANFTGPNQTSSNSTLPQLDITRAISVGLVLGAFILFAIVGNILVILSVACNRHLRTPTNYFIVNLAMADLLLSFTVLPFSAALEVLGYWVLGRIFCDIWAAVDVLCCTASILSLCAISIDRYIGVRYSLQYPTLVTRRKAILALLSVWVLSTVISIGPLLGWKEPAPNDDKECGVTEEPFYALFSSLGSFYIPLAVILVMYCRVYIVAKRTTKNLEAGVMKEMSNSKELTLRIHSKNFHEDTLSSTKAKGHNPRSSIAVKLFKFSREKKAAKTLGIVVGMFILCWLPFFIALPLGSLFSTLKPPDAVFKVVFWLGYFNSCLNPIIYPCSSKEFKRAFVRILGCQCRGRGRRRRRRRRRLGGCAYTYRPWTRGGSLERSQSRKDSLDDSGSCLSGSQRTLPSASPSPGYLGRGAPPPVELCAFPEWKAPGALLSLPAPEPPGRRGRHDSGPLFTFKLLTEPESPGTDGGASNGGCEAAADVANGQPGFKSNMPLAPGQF
procedureDetails: Equilibrium competition binding, [3H] prazosin, membranes of transfected LM(tk-) cells
pKi: −log10 of the molar value.
Everything with pKi lower than 5 is condition not met; everything else, including exactly 5, is condition met.

[
  {
    "compound": "OCCn1cnc2c(Br)c(NC3=NCCN3)ccc21 [Example 38]",
    "target": "α1B Human Adrenergic Receptor (Homo sapiens, UniProt P35368)",
    "classLabel": "condition not met"
  },
  {
    "compound": "Brc1c(NC2=NCCN2)ccc2ncn(Cc3ccccc3)c12 [Example 35]",
    "target": "α1B Human Adrenergic Receptor (Homo sapiens, UniProt P35368)",
    "classLabel": "condition met"
  },
  {
    "compound": "c1ccc(Cn2cnc3cc(NC4=NCCN4)ccc32)cc1 [Example 32]",
    "target": "α1B Human Adrenergic Receptor (Homo sapiens, UniProt P35368)",
    "classLabel": "condition not met"
  }
]
